Data credit: patent US20110118447A1

target: binding partner of C5A (XPA23); assay: Biacore K-off
Readout Type: fold difference in affinity vs original

The examples below pair each entry with its known result.
C5A (XPA23) VH K31H (antibody, V domains shown) VH: EVQLLESGGGLVQPGGSLRLSCAASGFTFSHYFMFWVRQAPGKGLEWVSVISPSGGMTRYADSVKGRFTISRDNSKNTLYLQMNSLRAEDTAVYYCARVGYGGNSDYWGQGTLVTVSS VL: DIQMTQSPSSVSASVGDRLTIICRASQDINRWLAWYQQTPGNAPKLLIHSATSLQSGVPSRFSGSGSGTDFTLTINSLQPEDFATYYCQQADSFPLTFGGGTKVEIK: 1.11 fold
C5A (XPA23) VL T52Y (antibody, V domains shown) VH: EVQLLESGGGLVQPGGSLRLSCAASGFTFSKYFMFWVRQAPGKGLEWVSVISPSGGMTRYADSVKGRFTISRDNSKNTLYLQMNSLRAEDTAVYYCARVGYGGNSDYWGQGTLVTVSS VL: DIQMTQSPSSVSASVGDRLTIICRASQDINRWLAWYQQTPGNAPKLLIHSAYSLQSGVPSRFSGSGSGTDFTLTINSLQPEDFATYYCQQADSFPLTFGGGTKVEIK: 1.01 fold

Next binder, please.
fold difference in affinity vs original reported for this binder C5A (XPA23) VL R31D (antibody, V domains shown) VH: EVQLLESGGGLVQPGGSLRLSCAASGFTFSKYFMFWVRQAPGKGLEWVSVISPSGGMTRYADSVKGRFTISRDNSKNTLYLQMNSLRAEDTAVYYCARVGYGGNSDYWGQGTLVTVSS VL: DIQMTQSPSSVSASVGDRLTIICRASQDINDWLAWYQQTPGNAPKLLIHSATSLQSGVPSRFSGSGSGTDFTLTINSLQPEDFATYYCQQADSFPLTFGGGTKVEIK : 11.1 fold
